Provenance of the data: the supplement of paper PMC5844555

I'd be grateful if you could share measured 3' UTR reporter interaction score for these entries.
# System: EZH2
# Experiment: 3' UTR reporter interaction score (median-centred robust z-score of log2 firefly/Renilla activity); higher = less repression of the 3' UTR reporter
# Condition summary: HEK293T; 48 h

These solved cases illustrate the format of a correct answer.
| Sequence data | 3' UTR reporter interaction score |
| --- | --- |
| UAUUGCUUAAGAAUACGCGUAG | 0.837 |
| UCCCACGUUGUGGCCCAGCAG | 0.303 |
| AGGGAUCGCGGGCGGGUGGCGGCCU | -0.298 |
| AAAGUGCUUCUCUUUGGUGGGUU | -1.56 |

Parameter requested: 3' UTR reporter interaction score. Apply to each item below.
1. CAACCUGGAGGACUCCAUGCUG
2. UAAUACUGCCUGGUAAUGAUGAC
3. GUUUGCACGGGUGGGCCUUGUCU
4. AGACCUGGCCCAGACCUCAGC
5. CAAAGCGCUUCCCUUUGGAGC

Response:
1: 0.157; 2: 0.31; 3: -0.233; 4: 0.316; 5: 0.322

Parameter requested: 3' UTR reporter interaction score. Apply to each item below.
1. UUAAGGCACGCGGUGAAUGCCA
2. AAACUCUACUUGUCCUUCUGAGU
3. ACUAGACUGAAGCUCCUUGAGG
4. GAGCUUAUUCAUAAAAGUGCAG

Response:
1. -1.56
2. -0.108
3. 0.526
4. 0.564
